This collection of values is drawn from ChEMBL document CHEMBL3885861.

species: Rattus norvegicus; experiment: Open TG-GATES - Regimen: Daily Repeat; assay type: toxicity, organism-based, Sprague-Dawley; parameters: regimen Daily Repeat, gender Male, age 6 weeks; conditions: in vivo, po, 0 mg/kg, 72 h, tissue Kidney, route gavage, dose level Control, time 3 day
KIDNEY_L: recorded values
PARAMETER MEASURED: KIDNEY_L (g)

| COMPOUND | REPORTED |
| --- | --- |
| COc1ccc(Cc2nccc3cc(OC)c(OC)cc23)cc1OC | 1 |
| NC(=O)N/N=C/c1ccc([N+](=O)[O-])o1 | 0.9 |
| CC(=O)Oc1ccccc1C(=O)O | 1.1 |
| O=C(O)c1cn(C2CC2)c2cc(N3CCNCC3)c(F)cc2c1=O | 0.9 |
| CCc1cc(C(N)=S)ccn1 [ETHIONAMIDE] | 1.1 |
| Cn1c(=O)c2[nH]cnc2n(C)c1=O.O | 1.1 |
| COc1ccc2c(c1)c(CC(=O)O)c(C)n2C(=O)c1ccc(Cl)cc1 | 1 |
| NC(=O)N1c2ccccc2C=Cc2ccccc21 [CARBAMAZEPINE] | 1.1 |
| O=C(O)c1cc(/N=N/c2ccc(S(=O)(=O)Nc3ccccn3)cc2)ccc1O | 1 |
| CO[C@H]1/C=C/O[C@@]2(C)Oc3c(C)c(O)c4c(O)c(c(/C=N/N5CCN(C)CC5)c(O)c4c3C2=O)NC(=O)/C(C)=C\C=C\[C@H](C)[C@H](O)[C@@H](C)[C@@H](O)[C@@H](C)[C@H](OC(C)=O)[C@@H]1C | 1 |
| CSc1ccc2c(c1)N(CCC1CCCCN1C)c1ccccc1S2 (centres undefined) | 1.1 |
| Clc1ccccc1CN1CCc2sccc2C1 | 1.1 |
| CN(C)CCC=C1c2ccccc2CCc2ccccc21 | 0.9 |
| C[C@H](CS)C(=O)N1CCC[C@H]1C(=O)O | 1.1 |

###

species: Rattus norvegicus; assay: Open TG-GATES - Regimen: Daily Repeat; assay type: toxicity, organism-based, Sprague-Dawley; set-up: regimen Daily Repeat, gender Male, age 6 weeks; details: in vivo, po, 0 mg/kg, 72 h, route gavage, dose level Control, time 3 day
Recorded TERMINAL_BW values for a group of compounds are listed next.

| COMPOUND | RESULT UNIT | TERMINAL_BW |
| --- | --- | --- |
| NC(=O)N1c2ccccc2C=Cc2ccccc21 [CARBAMAZEPINE] | g | 235.3 |
| CSc1ccc2c(c1)N(CCC1CCCCN1C)c1ccccc1S2 (stereo not given) | g | 237.9 |
| NC(=O)N/N=C/c1ccc([N+](=O)[O-])o1 | g | 218.5 |
| CCc1cc(C(N)=S)ccn1 [ETHIONAMIDE] | g | 250.2 |
| Cn1c(=O)c2[nH]cnc2n(C)c1=O.O | g | 247 |
| O=C(O)c1cn(C2CC2)c2cc(N3CCNCC3)c(F)cc2c1=O | g | 198.1 |
| COc1ccc2c(c1)c(CC(=O)O)c(C)n2C(=O)c1ccc(Cl)cc1 | g | 239.9 |
| O=C(O)c1cc(/N=N/c2ccc(S(=O)(=O)Nc3ccccn3)cc2)ccc1O | g | 237.4 |
| Clc1ccccc1CN1CCc2sccc2C1 | g | 230.2 |
| CC(=O)Oc1ccccc1C(=O)O | g | 238.8 |
